Sourced from patent US6875777B2

# Measurement protocol: RLM metabolic stability (% remaining)
# Stated conditions: 100000 (unit not given)
Recorded metric: RLM 100000 % REM. (%)
Give bare numbers, in %.

Recorded results for 5 compounds are shown here.
{"columns": ["Structure as smiles", "Recorded metric", "Output unit", "Experimental result"],
 "data": [
  ["CCN(CC)C(=O)c1ccc(N(c2cccc(O)c2)C2CCN(Cc3ccc(I)cc3)CC2)cc1", "RLM 100000 % REM.", "%", 35.667],
  ["CCN(CC)C(=O)c1ccc(N(c2cccc(O)c2)C2CCN(Cc3ccsc3)CC2)cc1", "RLM 100000 % REM.", "%", 66.5],
  ["CCN(CC)C(=O)c1ccc(N(c2cccc(O)c2)C2CCN(Cc3cccc(F)c3)CC2)cc1", "RLM 100000 % REM.", "%", 87.5],
  ["CCN(CC)C(=O)c1ccc(N(c2cccc(O)c2)C2CCN(Cc3ccco3)CC2)cc1", "RLM 100000 % REM.", "%", 54.5],
  ["CCN(CC)C(=O)c1ccc(N(c2cccc(O)c2)C2CCN(Cc3ccc(Cl)cc3Cl)CC2)cc1", "RLM 100000 % REM.", "%", 75]
]}

For every item in the list below, what is its measured RLM 100000 % REM.?
1. CCN(CC)C(=O)c1ccc(N(c2cc(O)ccc2F)C2CCN(Cc3ccccc3)CC2)cc1
2. CCN(CC)C(=O)c1ccc(N(c2cccc(O)c2)C2CCN(Cc3ccoc3)CC2)cc1
3. CCN(CC)C(=O)c1ccc(N(c2cccc(O)c2)C2CCN(Cc3cccs3)CC2)cc1

Out:
1. 81.333
2. 73
3. 52
